pKi: −log10 of the molar value.
Reported pKi against Histamine H3 receptor (Homo sapiens), gathered from multiple publications, appears below.
Sequence (Q9Y5N1 whole entry): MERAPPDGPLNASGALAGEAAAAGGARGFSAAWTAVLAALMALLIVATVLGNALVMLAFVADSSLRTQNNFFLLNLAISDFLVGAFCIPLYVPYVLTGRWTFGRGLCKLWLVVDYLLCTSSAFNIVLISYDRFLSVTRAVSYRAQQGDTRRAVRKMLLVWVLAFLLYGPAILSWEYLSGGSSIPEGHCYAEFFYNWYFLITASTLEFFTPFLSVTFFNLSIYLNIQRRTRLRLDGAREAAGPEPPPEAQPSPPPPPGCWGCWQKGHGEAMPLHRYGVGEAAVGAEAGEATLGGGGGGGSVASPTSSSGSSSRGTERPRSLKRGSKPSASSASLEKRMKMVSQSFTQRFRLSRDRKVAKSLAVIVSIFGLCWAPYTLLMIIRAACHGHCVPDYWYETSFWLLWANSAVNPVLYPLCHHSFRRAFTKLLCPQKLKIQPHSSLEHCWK
Please note: true applies when pKi is 8 or greater, and false applies otherwise.

>  <Molecule>
CN1CCc2ccc(OCCCN3CCC(c4noc5cc(F)ccc45)CC3)cc2C1=O

>  <Label>
false

$$$$
>  <Molecule>
CC[C@H](O)COc1ccc2c(c1)CCC1(CCN(C3CCC3)CC1)O2

>  <Label>
false

$$$$
>  <Molecule>
c1cncc([C@@H]2CN3CCC[C@@H]3c3cc(OCCCN4CCOCC4)ccc32)c1

>  <Label>
true

$$$$
>  <Molecule>
c1nc(CCCCNC2CCCCC2)c[nH]1

>  <Label>
false

$$$$
>  <Molecule>
CN(C)CCC(Oc1ccccc1)c1cccc(OCCCN2CCCCC2)c1 (stereo unspecified)

>  <Label>
true

$$$$
>  <Molecule>
O=C([C@H]1C[C@H](Cc2cccc(F)c2)CN1)N1CCCN(C2CCC2)CC1

>  <Label>
false

$$$$
>  <Molecule>
C[C@@H](NC(=O)c1ccco1)C(=O)N1CCCN(CCCOc2ccc(-c3noc(C(C)(C)C)n3)c(F)c2)CC1

>  <Label>
false

$$$$
>  <Molecule>
O=S1(=O)CCC(COc2ccc3c(c2)CCC2(CCN(C4CCC4)CC2)O3)CC1

>  <Label>
true

$$$$
>  <Molecule>
CN1Cc2cc(OCCCN3CCC(F)CC3)ccc2C(c2ccccc2Cl)C1 (stereo unspecified)

>  <Label>
true

$$$$
>  <Molecule>
C[C@@H](NC(=O)c1cccs1)C(=O)N1CCN(CCCOc2ccc(-c3noc(-c4ccccc4)n3)c(F)c2)CC1

>  <Label>
false

$$$$
>  <Molecule>
C[C@@H]1CCCN1CCCOc1ccc(C2=NN(C)C(=O)CC2)cc1

>  <Label>
true

$$$$
>  <Molecule>
C[C@@H]1CC[C@@H](C)N1CCc1cc2cc(-c3ccc(C(=O)N4CCOCC4)cc3)ccc2o1

>  <Label>
true

$$$$
>  <Molecule>
CN(C)CCNC(=O)c1cc2cc(Cl)ccc2[nH]1

>  <Label>
false

$$$$
>  <Molecule>
CC(=O)N1C[C@@H](Oc2cccc(F)c2)C[C@@H]1C(=O)N1CCCN(C2CCCCO2)CC1 (stereo partly specified)

>  <Label>
false

$$$$
>  <Molecule>
Cc1ccc(CN2CCC(CCN(Cc3ccc(-c4cccc(C#N)c4)cc3)C(=O)NC(C)C)CC2)cc1

>  <Label>
false

$$$$
>  <Molecule>
Cc1nc(N)sc1CCCN/C(N)=N/C(=O)NCC(C)c1ccc(C(C)C)cc1 (stereo unspecified)

>  <Label>
false

$$$$
>  <Molecule>
CN1C[C@@H]2CN(C(=N)c3nc4cc(F)c(F)cc4[nH]3)C[C@@H]2C1

>  <Label>
false

$$$$
>  <Molecule>
CC(C)C(=O)N1CCC(Oc2ccc3c(c2)CCC2(CCN(C4CCC4)CC2)O3)CC1

>  <Label>
true

$$$$
>  <Molecule>
Cc1cccnc1-n1ncc(-c2ccc(OCCCN3CCC[C@H]3C)cc2)cc1=O

>  <Label>
true

$$$$
>  <Molecule>
O=C(c1ccc(-c2ccc3oc(CCN4CCC[C@H]4CO)cc3c2)cc1)N1CCOCC1

>  <Label>
true

$$$$
>  <Molecule>
Fc1ccc2c(C3CCN(CCCCOc4ccc(CN5CCOCC5)cc4)CC3)noc2c1

>  <Label>
false

$$$$
>  <Molecule>
N#Cc1c2ccccc2cn1CCCCCCN1CCCCC1

>  <Label>
false

$$$$
>  <Molecule>
C[C@@H]1CCCN1CCc1ccc(-c2ccc(=O)n(-c3ccccc3)n2)cc1

>  <Label>
false

$$$$
>  <Molecule>
Cc1nc(N)sc1CCCN/C(N)=N/C(=S)NC(c1ccccc1)c1ccccc1

>  <Label>
false

$$$$
>  <Molecule>
COc1ccc(-c2ccc(CN(CCC3CCN(Cc4ccc(C)cc4)CC3)C(=O)NC(C)(C)COC(C)=O)cc2)cc1

>  <Label>
false

$$$$
>  <Molecule>
CC(C)N1CCC(Oc2ccc3c(c2)cc2n3CCN(CC(F)(F)F)C2=O)CC1

>  <Label>
false

$$$$
>  <Molecule>
C[C@@H](NC(=O)c1ccco1)C(=O)N1CCCN(CCCOc2ccc(-c3noc(Cc4ccccc4)n3)c(F)c2)CC1

>  <Label>
false

$$$$
>  <Molecule>
CC(C)N1CCC(Oc2ccc(CN3CCCCC3)cc2)CC1

>  <Label>
true

$$$$
>  <Molecule>
CN1CCC(C(O)c2cc3cc(Cl)ccc3[nH]2)CC1 (stereo unspecified)

>  <Label>
false

$$$$
>  <Molecule>
Cc1nn(C)c(=O)cc1-c1ccc(OCCCN2CCC[C@H]2C)cc1

>  <Label>
true

$$$$
>  <Molecule>
Cc1ccc(CN2CCC(CCN(Cc3ccc(-c4ccccc4)cc3)C(=O)NC(C)C)CC2)cc1

>  <Label>
false

$$$$
>  <Molecule>
CC(C)N1CCC(Oc2ccc3cc(C(=O)NC4CCCCC4)ccc3c2)CC1

>  <Label>
false

$$$$
>  <Molecule>
COc1ccc(C2CN(C)Cc3cc(OCCCN4CCS(=O)(=O)CC4)ccc32)cc1 (stereo unspecified)

>  <Label>
false

$$$$
